Test system: 633275-114-R-J1-PDC complex spheroids, viability;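 also: spheroids exposed to the agents for seven days; percent of DMSO vehicle control viability which is 100%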
Assay Remarks: Anticancer human tumor 633275-114-R-J1-PDC patient-derived endometrial adenocarcinoma cell line growth inhibition [GQUAD]
Experimental Setup: second compound 0.1 µM; first compound 1 µM; stronger effect = lower value
Attribute: viability, T/C
Measured Metric: viability, T/C

{"Compound": "C=CC(=O)N1CCN(c2nc(=O)n(-c3c(C)ccnc3C(C)C)c3nc(-c4c(O)cccc4F)c(F)cc23)C(C)C1 (centres undefined) + CN(C)c1ccc(Nc2c3ccc(NC(=O)CCN4CCCC4)cc3nc3cc(NC(=O)CCN4CCCC4)ccc23)cc1", "Obs Value": "92.6%"}
{"Compound": "CC(=O)O[C@H]1C(=O)[C@@]2(C)[C@H]([C@H](OC(=O)c3ccccc3)[C@]3(O)C[C@H](OC(=O)[C@H](O)[C@@H](NC(=O)c4ccccc4)c4ccccc4)C(C)=C1C3(C)C)[C@]1(OC(C)=O)CO[C@@H]1C[C@@H]2O + Cc1[nH]c2ccc(F)cc2c1-c1nc2c3cccnc3c3ncccc3c2[nH]1", "Obs Value": "18.4%"}
{"Compound": "C=CCn1c(=O)c2cnc(Nc3ccc(N4CCN(C)CC4)cc3)nc2n1-c1cccc(C(C)(C)O)n1 + Cc1[nH]c2ccc(F)cc2c1-c1nc2c3cccnc3c3ncccc3c2[nH]1", "Obs Value": "40.4%"}
{"Compound": "COc1ncnc(C2CC2)c1-c1ncc2cnn(Cc3ccc(-c4nc(C(F)(F)F)cn4C(C)C)cc3)c2n1 + Cc1cnc(CNC(=O)c2c(=O)c3ccc(N4CCCN(C)CC4)nc3n3c2sc2ccccc23)cn1", "Obs Value": "48.5%"}

The values you see were collected from PubChem BioAssay AID2060505.
